- Tested on: RF strain of HIV (CEM-SS cells)
- procedureText: Cell Culture Anti-HIV Activity (cell viability, formazan)
- Type: cell-based
- runConditions: CEM-SS cells, RF strain of HIV, multiplicity of infection 0.04, 6 days at 37° C., 450 nm; read-out: HIV (CEM Cells) IC50
testReadout: pIC50
For clarity, pIC50 is expressed as the negative log10 of concentration in mol/L.

The following compounds have reported results that may help.
# compound, assayedSystem, pIC50
measured = [
    ("CC(C)(C)OC(=O)N[C@@H](Cc1ccccc1)[C@H](O)CNC[C@@H](O)[C@H](Cc1ccccc1)NC(=O)C1(O)CCCC1(C)C (single isomer, unassigned; isomer b) [Compound 322]", "RF strain of HIV (CEM-SS cells)", 7.70),
    ("CC(C)(C)OC(=O)N[C@@H](Cc1ccccc1)[C@H](O)CNC[C@@H](O)[C@H](Cc1ccccc1)NC(=O)C(NC(=O)OCc1ccccc1)C(C)(C)CO (single isomer, unassigned; isomer b) [Compound 309]", "RF strain of HIV (CEM-SS cells)", 5.74),
]

// moving on: another record for pIC50
What reported pIC50 corresponds to CC(C)(C)OC(=O)N[C@@H](Cc1ccccc1)[C@H](O)CNC[C@@H](O)[C@H](Cc1ccccc1)NC(=O)C(C)(O)C(C)(C)CO (single isomer, unassigned; isomer b) [Compound 357] on RF strain of HIV (CEM-SS cells)? 6.96
